# pEC50 per record follows
Subject Of Test: hTLR4 (Homo sapiens, UniProt O00206+Q9Y6Y9)
Construct: expressed in transfected cells; host or cells: HEK cells expressing hTLR4 and an NF-κB driven SEAP reporter
Sequence (O00206 24-839): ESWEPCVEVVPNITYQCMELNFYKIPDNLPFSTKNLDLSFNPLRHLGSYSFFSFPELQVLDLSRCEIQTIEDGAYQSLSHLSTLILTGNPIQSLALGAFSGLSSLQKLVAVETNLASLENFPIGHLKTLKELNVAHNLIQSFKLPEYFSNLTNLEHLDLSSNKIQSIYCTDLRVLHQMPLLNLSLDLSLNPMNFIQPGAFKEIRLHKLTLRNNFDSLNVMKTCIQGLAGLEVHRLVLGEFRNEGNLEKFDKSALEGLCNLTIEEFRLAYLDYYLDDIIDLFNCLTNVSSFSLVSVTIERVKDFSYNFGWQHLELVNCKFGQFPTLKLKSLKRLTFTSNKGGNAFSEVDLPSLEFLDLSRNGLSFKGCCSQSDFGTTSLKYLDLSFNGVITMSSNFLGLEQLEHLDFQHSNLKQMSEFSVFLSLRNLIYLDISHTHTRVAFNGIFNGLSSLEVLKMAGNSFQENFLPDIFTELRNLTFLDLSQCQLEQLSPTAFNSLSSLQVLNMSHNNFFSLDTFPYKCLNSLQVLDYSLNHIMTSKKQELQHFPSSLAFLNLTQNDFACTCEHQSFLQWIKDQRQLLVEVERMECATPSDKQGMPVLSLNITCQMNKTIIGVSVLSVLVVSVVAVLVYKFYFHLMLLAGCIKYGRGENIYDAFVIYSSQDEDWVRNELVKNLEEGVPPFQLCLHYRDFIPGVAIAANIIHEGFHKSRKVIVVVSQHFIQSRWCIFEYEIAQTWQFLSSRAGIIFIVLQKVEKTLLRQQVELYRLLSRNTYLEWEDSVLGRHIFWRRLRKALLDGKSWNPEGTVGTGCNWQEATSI
Sequence (Q9Y6Y9 17-160 limits assumed): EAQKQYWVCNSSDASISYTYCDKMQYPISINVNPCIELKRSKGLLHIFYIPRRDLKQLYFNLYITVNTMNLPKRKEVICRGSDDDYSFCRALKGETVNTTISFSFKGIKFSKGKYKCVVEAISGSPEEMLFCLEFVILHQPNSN
Experimental Details: HEK hTLR4 NF-κB driven SEAP reporter assay (hTLR4 activation)
Format: cell-based
Condition Summary: Table 1b, 18 hours
pEC50: −log10 of the molar value.
Parameter: pEC50

1. CCCCCCCCCCC[C@H](CC(=O)NCCO[C@@H]1OC(CO)[C@@H](OS(=O)(=O)O)[C@H](NC(=O)C[C@@H](CCCCCCCCCCC)OC(=O)CCCCCCCCC)C1NC(=O)C[C@@H](CCCCCCCCCCC)OC(=O)CCCCCCCCC)OC(=O)CCCCCCCCC (stereo partly drawn): 7.39
2. CCCCCCCCCCC[C@H](CC(=O)NC1[C@H](OC[C@H](NC(=O)C[C@@H](CCCCCCCCCCC)OCCCCCCCCCC)C(=O)O)OC(CO)[C@@H](OS(=O)(=O)O)[C@@H]1NC(=O)C[C@@H](CCCCCCCCCCC)OCCCCCCCCCC)OCCCCCCCCCC (stereo partly drawn): 8.54
3. CCCCCCCCCCC[C@H](CC(=O)NC1C(NC(=O)C[C@@H](CCCCCCCCCCC)OCCCCCCCCCC)[C@H](OP(=O)(O)O)C(CO)O[C@H]1OC[C@H](NC(=O)C[C@@H](CCCCCCCCCCC)OCCCCCCCCCC)C(=O)O)OCCCCCCCCCC (stereo partly drawn): 8.86

Cited source for all entries: patent US20250170156A1
